procedure-summary: Selectivity ratio of thrombin Kass to ntPA Kass
outcome-measure: Ratio

P: CN[C@H](Cc1ccccc1)C(=O)N1CCC[C@H]1C(=O)NCCCCN=C(N)N
Q: CN[C@H](Cc1ccccc1)C(=O)N1CCC[C@H]1C(=O)N[C@H](C=O)CCCNC(=N)N
R: NC(N)=NCCCCNC(=O)C1CCCN1C(=O)[C@H](N)Cc1ccccc1 (stereo partly specified)
S: NC(N)=NCCCNC(=O)[C@@H]1CCCN1C(=O)[C@H](N)Cc1ccccc1
// query Ranking by Ratio (descending) is requested for the entries above. List the labels in the requested order.
// result Q, P, R, S

----------
tested-system: Urokinase-type plasminogen activator (Homo sapiens) (UniProt P00749)
procedure-summary: In vitro inhibitory potency against Urokinase-type plasminogen activator in human
Let's look at some compounds and their measured K ass.

# example entries with known answers
CN[C@H](Cc1ccccc1)C(=O)N1CCC[C@H]1C(=O)N[C@H](C=O)CCCNC(=N)N	32000 l M-1
NC(N)=NCCCCNC(=O)C1CCCN1C(=O)[C@H](N)Cc1ccccc1 (some centres undefined)	180 l M-1
CN[C@H](Cc1ccccc1)C(=O)N1CCC[C@H]1C(=O)NCCCCN=C(N)N	180 l M-1

Proceed to the following item.
// query Any idea what K ass was measured for NC(N)=NCCC[C@@H](C=O)NC(=O)[C@@H]1CCCN1C(=O)[C@H](N)Cc1ccccc1 ?
// result 42000 l M-1

----------
tested-system: Tissue-type plasminogen activator (Homo sapiens)
procedure-summary: In vitro inhibitory potency against n-tissue plasminogen activator in human
Let's look at some compounds and their measured K ass.

# example entries with known answers
CN[C@H](Cc1ccccc1)C(=O)N1CCC[C@H]1C(=O)NCCCCN=C(N)N	1100 l M-1
NC(N)=NCCC[C@@H](C=O)NC(=O)[C@@H]1CCCN1C(=O)[C@H](N)Cc1ccccc1	290000 l M-1
NC(N)=NCCCCNC(=O)C1CCCN1C(=O)[C@H](N)Cc1ccccc1 (stereo not given in full)	6000 l M-1
NC(N)=NCCCNC(=O)[C@@H]1CCCN1C(=O)[C@H](N)Cc1ccccc1	4100 l M-1

// query Any idea what K ass was measured for CN[C@H](Cc1ccccc1)C(=O)N1CCC[C@H]1C(=O)N[C@H](C=O)CCCNC(=N)N ?
// result 50000 l M-1

Where do these numbers come from? They come from ChEMBL document CHEMBL1128086.
